Reference source for all entries: patent US20230399320A1

Tested on: HBV DNA
Assay: Quantitative PCR for measuring HBV DNA in cells (HBV DNA quantification)
Type: cell-based
Settings: Hepatitis B virus; read-out: HBV DNA quantification (IC50 μM)
IC50 for assorted compounds

{"compound": "CS(=O)(=O)c1nc(Nc2ccc(F)cc2)cc(Nc2ccc(F)cc2)n1 [Compound 18a]", "IC50": "6.4 µM"}
{"compound": "C[S+]([O-])c1nc(NCCNC(=O)c2ccc(F)cc2)cc(Nc2ccc(N3CCOCC3)cc2)n1 (stereo not shown)", "IC50": "> 10 µM"}
{"compound": "CS(=O)(=O)c1nc(Nc2ccc(F)cc2)cc(N2CCNCC2)n1 [Compound 26a]", "IC50": "0.962 µM"}
{"compound": "CS(=O)(=O)c1nc(Nc2cc(F)c(F)c(F)c2)cc(N2CCNCC2)n1 [Compound 26b]", "IC50": "0.203 µM"}
{"compound": "CSc1nc(N)cc(N(Cc2ccc(F)cc2)c2ccc(N3CCOCC3)cc2)n1 [Compound 11a]", "IC50": "> 10 µM"}
{"compound": "COc1cncc(C(=O)NCCNc2cc(Nc3ccc(N4CCOCC4)cc3)nc([S+](C)[O-])n2)c1 (stereo not shown)", "IC50": "> 10 µM"}
{"compound": "COc1ncccc1C(=O)NCCNc1cc(Nc2ccc(F)cc2)nc([S+](C)[O-])n1 (stereo not shown)", "IC50": "0.21 µM"}
{"compound": "COc1ncccc1C(=O)NCCNc1cc(Nc2ccc(N3CCOCC3)cc2)nc([S+](C)[O-])n1 (stereo not shown)", "IC50": "0.402 µM"}
{"compound": "COc1ncccc1C(=O)N1CCN(c2cc(Nc3ccc(N4CCOCC4)cc3)nc([S+](C)[O-])n2)CC1 (stereo not shown)", "IC50": "> 10 µM"}
{"compound": "CSc1nc(N)cc(N(CCc2ccc(F)cc2)c2ccc(N3CCOCC3)cc2)n1 [Compound 11b]", "IC50": "> 10 µM"}
{"compound": "COc1ncccc1C(=O)NCCNc1cc(Nc2ccc(I)cc2)nc([S+](C)[O-])n1 (stereo not shown)", "IC50": "> 10 µM"}
{"compound": "COc1ncccc1C(=O)N1CCN(c2cc(Nc3ccc(N4CCOCC4)cc3)nc(SC)n2)CC1", "IC50": "> 10 µM"}
{"compound": "COc1cncc(C(=O)NCCNc2cc(Nc3ccc(N4CCOCC4)cc3)nc(SC)n2)c1", "IC50": "> 10 µM"}
{"compound": "COc1ncccc1C(=O)NCCNc1cc(Nc2ccc(N3CCOCC3)cc2)nc(SC)n1", "IC50": "> 10 µM"}
{"compound": "CS(=O)(=O)c1nc(Nc2ccc(F)c(Br)c2)cc(N2CCNCC2)n1 [Compound 26d]", "IC50": "0.547 µM"}
{"compound": "CS(=O)(=O)c1nc(Nc2cc(F)c(F)c(F)c2)cc(Nc2cc(F)c(F)c(F)c2)n1 [Compound 18b]", "IC50": "1.02 µM"}
